Overview of recorded inhibition at 3.3 µM for various molecules
Target: EML4-ALK-BaF3 (Homo sapiens, UniProt Q9UM73)
Construct: EML4 (echinoderm microtubule associated protein like 4, Q9HC35) fusion partner; expressed in transfected cells; host or cells: BaF3; the other entry of the earlier key: EML4 (Q9HC35, Echinoderm microtubule-associated protein-like 4)
Sequence (Q9UM73 1058-1620 limits assumed): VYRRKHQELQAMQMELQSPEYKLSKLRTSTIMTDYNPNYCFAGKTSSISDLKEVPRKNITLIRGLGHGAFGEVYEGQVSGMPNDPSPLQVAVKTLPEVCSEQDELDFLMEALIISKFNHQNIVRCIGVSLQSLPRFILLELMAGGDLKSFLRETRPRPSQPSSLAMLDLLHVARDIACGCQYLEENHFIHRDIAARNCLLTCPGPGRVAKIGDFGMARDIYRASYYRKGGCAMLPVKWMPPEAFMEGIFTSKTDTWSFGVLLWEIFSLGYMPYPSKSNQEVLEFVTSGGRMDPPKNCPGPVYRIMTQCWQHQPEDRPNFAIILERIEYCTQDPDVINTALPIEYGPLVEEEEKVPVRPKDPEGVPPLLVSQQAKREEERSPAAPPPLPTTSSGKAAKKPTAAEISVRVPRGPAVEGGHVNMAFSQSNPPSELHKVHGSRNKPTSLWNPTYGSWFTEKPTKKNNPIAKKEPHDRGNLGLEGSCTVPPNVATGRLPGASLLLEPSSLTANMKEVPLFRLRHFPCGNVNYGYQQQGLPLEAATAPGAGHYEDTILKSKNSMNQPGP
Test: Growth inhibition of BaF3 cells stably transfected with kinase EML4-ALK (MTS)
Assay type: cell-based
Conditions: compound concentration 3.3 μM, read-out: cell growth inhibition rate, EML4-ALK

Solved cases (2 shown):
{"columns": ["MOLECULE", "inhibition at 3.3 µM"],
 "data": [
  ["COc1cc(N2CCN(C)CC2)ccc1Nc1nc(Nc2ccccc2[S+]([O-])C(C)C)c2sccc2n1 (stereo not drawn)", "> 99%"],
  ["COC(=O)c1cccc(Nc2nc(Nc3cc(C)c(C4CCN(C)CC4)cc3OC(C)C)nc3ccsc23)c1", "> 99%"]
]}

Attention now turns to another entry.
Query string: Need inhibition at 3.3 µM of CNC(=O)c1cccc(F)c1Nc1nc(Nc2cc3c(cc2OC)CCN3C(=O)CN(C)C)nc2ccsc12 , thanks.
Result string: > 99%
